// provenance: PubChem BioAssay AID1159580

- EXPERIMENT: chemical genetic growth profiling, strain panel (AID 1159580);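 further: tested at 20 µM; growth read once vehicle control cultures reached saturation at 30 °C; 1 = growth at the plate median or of vehicle wells; lower values mean less growth of the strain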
- PROTOCOL CONDITIONS: S. cerevisiae deletion strains, growth OD, locus YNL197C, strain WHI3, hits give low values
In all, about 5,500 compounds went through this assay and about 2,000 (36%) were called active. Not shown: some 18% with an inconclusive outcome. Some of the results follow.
ASSAY READOUT: normalized growth
Output: the number by itself.

Worked examples, 6 molecules total:
MOLECULE	ASSAY READOUT	NUMBER
CC1CCN=C(N)S1 (configuration not stated)	normalized growth	0.99
CCCC[N+]1(C)C2CC(OC(=O)[C@H](CO)c3ccccc3)CC1C1OC12 (some centres not stated)	normalized growth	0.989
CC(C)Oc1cccnc1N(C)C1CCN(Cc2ccccc2)CC1	normalized growth	0.991
N[C@@H](CS(=O)O)C(=O)O	normalized growth	1.02
CCSC(=N)N	normalized growth	0.992
CCCCCCCCCCCCCCSCC(=O)O	normalized growth	0.957

Q) Could you tell me which normalized growth is on file for Oc1ccc2c3c1O[C@H]1c4[nH]c5c(c4C[C@@]4(O)[C@@H](C2)N(CC2CC2)CC[C@]314)C[C@@]1(O)[C@H]2Cc3ccc(O)c4c3[C@@]1(CCN2CC1CC1)[C@H]5O4 ?
A) 0.978

###

- EXPERIMENT: chemical genetic growth profiling, strain panel (AID 1159580)
- PROTOCOL CONDITIONS: S. cerevisiae deletion strains, growth OD, locus YMR129W, hits give low values
The campaign covered roughly 5,500 compounds. About 2,000 (36%) were called active. Another 18% or so got no clear call; they are omitted. Some of the results follow.
ASSAY READOUT: normalized growth
Output: the number by itself.

MOLECULE	normalized growth
C[CH2][Hg][S]c1ccccc1C(=O)O	0.0561

Q) Could you tell me which normalized growth is on file for Cn1cc[nH]c1=S ?
A) 1

Q) # repeat for NC[C@@H]1O[C@H](O[C@@H]2[C@@H](CO)OC(O[C@@H]3[C@@H](O)[C@H](N)C[C@H](N)[C@H]3OC3O[C@H](CN)[C@@H](O)[C@H](O)[C@H]3N)[C@@H]2O)[C@H](N)[C@@H](O)[C@@H]1O (stereo partly specified)
A) 1.02

Q) # repeat for COc1ccc2cc1Oc1ccc(cc1)C[C@H]1c3c(cc4c(c3Oc3cc5c(cc3OC)CCN(C)[C@@H]5C2)OCO4)CCN1C
A) 0.971

Q) # repeat for CCCCCCCC/C=C/CCCCCCCCOP(=O)([O-])OCC[N+](C)(C)C
A) 0.0548

###

- EXPERIMENT: chemical genetic growth profiling, strain panel (AID 1159580)
- PROTOCOL CONDITIONS: S. cerevisiae deletion strains, growth OD, locus YEL037C, strain rad23, hits give low values
Hit rate of the full screen: of about 5,500 compounds, about 2,000 (36%) were called active. Roughly 18% stayed inconclusive and do not appear here. The list shows a part of the results.
Quick list: normalized growth per entry.
Output: the number by itself.

MOLECULE	normalized growth
Cc1cccc(Nc2cc(Cl)nc(SCC(=O)O)n2)c1C	0.999

Q) Could you tell me which normalized growth is on file for CC(=O)O[C@@](C)(CCC=C(C)C)C1CC=C(C)CC1 (stereo partly drawn) ?
A) 0.991

Q) # repeat for COc1cccc([C@]2(O)CCCC[C@H]2CN(C)C)c1
A) 0.982

Q) # repeat for CN1CCc2cc3c(cc2C1O)OCO3 (stereo not drawn)
A) 1

Q) # repeat for OCC(O)Cc1ccc2c(c1)OCO2 (stereo not drawn)
A) 1.01

Q) # repeat for CC(C)(CO)C(O)C(=O)NCCCO (stereo not drawn)
A) 1.01

Q) # repeat for C=CCc1ccc2c(c1)OCO2
A) 1.02

###

- EXPERIMENT: chemical genetic growth profiling, strain panel (AID 1159580)
- PROTOCOL CONDITIONS: S. cerevisiae deletion strains, growth OD, locus YLR370C, strain arc18, hits give low values
The campaign covered roughly 5,500 compounds. About 2,000 (36%) were called active. Another 18% or so got no clear call; they are omitted. The list shows a part of the results.
ASSAY READOUT: normalized growth
Output: the number by itself.

Worked examples, 2 compounds total:
COMPOUND	NUMBER
Cc1cccc(Nc2cc(Cl)nc(SCC(=O)O)n2)c1C	0.992
C=CCc1ccc2c(c1)OCO2	1.04

Now look at this one.
Q) Could you tell me which normalized growth is on file for CCC(C(=O)O)c1ccccc1 (stereo not drawn) ?
A) 0.977

###

- EXPERIMENT: chemical genetic growth profiling, strain panel (AID 1159580)
- PROTOCOL CONDITIONS: S. cerevisiae deletion strains, growth OD, locus YER016W, strain bim1, hits give low values
About 2,000 (36%) of roughly 5,500 compounds were called active. About 18% were inconclusive and are not listed. Some of the results follow.
Label yes when normalized growth is strictly below 1; otherwise label no.

These solved cases illustrate the format of a correct answer.
SMILES ENTRY	ASSIGNED CATEGORY
COc1ccc(-c2coc3c(O)c(OC)ccc3c2=O)cc1	yes
COc1ccc(C(=O)c2ccccc2)c(O)c1	yes
CC(C)(N=NC(C)(C)C(=N)N)C(=N)N	no
C[CH2][Hg][S]c1ccccc1C(=O)O	yes
COc1ccc(C[C@H]2NC[C@H](O)[C@H]2OC(C)=O)cc1	yes

Q) Is it true that normalized growth reported for c1ccc(CC2=NCCN2)cc1 is less than 1?
A) no

###

- EXPERIMENT: chemical genetic growth profiling, strain panel (AID 1159580);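 further: tested at 20 µM; growth read once vehicle control cultures reached saturation at 30 °C; 1 = growth at the plate median or of vehicle wells; lower values mean less growth of the strain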
- PROTOCOL CONDITIONS: S. cerevisiae deletion strains, growth OD, locus YLL026W, hits give low values
Among all 5,500 compounds or so, about 2,000 (36%) were called active. About 18% were inconclusive and are not listed. This is one part of the list.
Quick list: normalized growth per entry.
Output: the number by itself.

Worked examples, 4 compounds total:
COMPOUND	normalized growth
COc1ccc2c(c1)OC[C@@H](Cc1ccc(OC)c(OC)c1)[C@H]2O	0.996
COC1C(O)C(O)C(O)[C@@H](O)C1O (some centres not stated)	0.992
NC(N)=Nc1nc(CSCCC(N)=NS(N)(=O)=O)cs1	0.992
O=C(O)COc1cc(Cl)c(Cl)cc1Cl	0.998

Q) Could you tell me which normalized growth is on file for COc1cc(OC)c2c(c1)O[C@H](c1ccc(OC)c(OC)c1)[C@@H](O)C2 ?
A) 0.996

Q) # repeat for O=C(/C=C/C=C/c1ccc2c(c1)OCO2)N1CCCCC1
A) 0.956

Q) # repeat for COC(=O)COc1cc(Cl)c(Cl)cc1Cl
A) 0.993

Q) # repeat for NC(=O)N1c2ccccc2CC(=O)c2ccccc21
A) 0.988

###

- EXPERIMENT: chemical genetic growth profiling, strain panel (AID 1159580);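 further: tested at 20 µM; growth read once vehicle control cultures reached saturation at 30 °C; 1 = growth at the plate median or of vehicle wells; lower values mean less growth of the strain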
- PROTOCOL CONDITIONS: S. cerevisiae deletion strains, growth OD, locus YNL153C, strain GIM3, hits give low values
The whole screen tested about 5,500 compounds, of which about 2,000 (36%) were called active. Another 18% or so got no clear call; they are omitted. The list shows a part of the results.
ASSAY READOUT: normalized growth

Worked examples, 3 molecules total:
MOLECULE	normalized growth
N#Cc1c(Cl)c(Cl)c(Cl)c(C#N)c1Cl	1.01 (inactive)
CC(C)[C@@]1(NC(=O)[C@@H]2C=C3c4cccc5[nH]cc(c45)C[C@H]3N(C)C2)O[C@@]2(O)[C@@H]3CCCN3C(=O)[C@H](Cc3ccccc3)N2C1=O	0.99 (inactive)
FC(F)(F)c1ccnc(-n2ccc(-c3cccs3)n2)n1	0.955 (inactive)

Q) Could you tell me which normalized growth is on file for CC(C)C[C@H]1C(=O)N2CCC[C@H]2[C@]2(O)O[C@](NC(=O)[C@@H]3C=C4c5cccc6[nH]c(Br)c(c56)C[C@H]4N(C)C3)(C(C)C)C(=O)N12 ?
A) 0.974 (inactive)

Q) # repeat for COc1ccc(-c2coc3c(OC)c(OC)cc(OC)c3c2=O)cc1
A) 0.978 (inactive)

Q) # repeat for CC(C)CC1C(=O)N2CCC[C@H]2C2(O)O[C@](NC(=O)C3C=C4c5cccc6[nH]c(Br)c(c56)C[C@H]4N(C)C3)(C(C)C)C(=O)N12 (some centres undefined)
A) 0.986 (inactive)

###

- EXPERIMENT: chemical genetic growth profiling, strain panel (AID 1159580);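 further: tested at 20 µM; growth read once vehicle control cultures reached saturation at 30 °C; 1 = growth at the plate median or of vehicle wells; lower values mean less growth of the strain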
- PROTOCOL CONDITIONS: S. cerevisiae strains, growth OD, strain wild type, hits give low values
About 2,000 (36%) of roughly 5,500 compounds were called active. Another 18% or so got no clear call; they are omitted. Some of the results follow.
ASSAY READOUT: normalized growth
Output: the number by itself.

Worked examples, 5 compounds total:
COMPOUND	NUMBER
OCC(O)Cc1ccc2c(c1)OCO2 (stereo not given)	1.01
NC(N)=Nc1nc(CSCCC(N)=NS(N)(=O)=O)cs1	1
CC(C)(C)NC(=O)N1CCN(c2nc3ccc(Cl)cc3s2)CC1	0.97
CCc1ccc(CCOc2ccc(CC3SC(=O)NC3=O)cc2)nc1 (stereo not given)	1.01
CO[C@H]1C[C@H](O[C@H]2[C@H](C)[C@@H](OC3O[C@H](C)C[C@H](N(C)C)[C@H]3O)[C@@H](C)C[C@]3(CO3)C(=O)[C@H](C)[C@@H](O)[C@@H](C)[C@@H](C)OC(=O)[C@@H]2C)O[C@@H](C)[C@@H]1O (stereo not given in full)	1

Q) Could you tell me which normalized growth is on file for O=[N+]([O-])O[C@H]1CO[C@H]2[C@@H]1OC[C@H]2O[N+](=O)[O-] ?
A) 1.02

Q) # repeat for Cc1cc(=O)c2c(O)c(C)c(O)cc2o1
A) 1.02

Q) # repeat for OC(CCN1CCCCC1)(c1ccccc1)c1ccccc1
A) 1.01

Q) # repeat for C=CCc1ccc2c(c1)OCO2
A) 1.01

Q) # repeat for CCCCOc1ccc(C(=O)CCN2CCCCC2)cc1
A) 0.647
